Where these numbers come from: patent US6352958B1

Test system: soybean (Glycine max var. Winchester)
Assay: Preemergence herbicidal activity, soybean
Format: in vivo
Conditions: Rate of Application 0.3 Kg/Ha, examined after 12-17 days
Values of PREEMERGENCE HERBICIDAL ACTIVITY (% CONTROL) SOY greater than or equal to 90% map to Met; values below map to Not met.

                                   molecule                           assay_system  qualitative_label
0  CCOC(=O)c1cc2c(N3C(=O)C4=C(CCCC4)C3=O)ccc(Cl)c2[nH]1 [Compound 595]  soybean (Glycine max var. Winchester)            Not met
1  Cn1c(C(F)(F)F)cc(=O)n(-c2c(F)cc(Br)c3oc(COc4ccccc4)nc23)c1=O [Compound 99]  soybean (Glycine max var. Winchester)            Not met

Is PREEMERGENCE HERBICIDAL ACTIVITY (% CONTROL) SOY for CNC(=O)OCCc1cc2c(Cl)cc(F)c(-n3c(=O)cc(C(F)(F)F)n(C)c3=O)c2o1 [Compound 261] at or above 90%? Met

Is PREEMERGENCE HERBICIDAL ACTIVITY (% CONTROL) SOY for CNC(=O)c1cc2c(Cl)cc(F)c(-n3c(=O)cc(C(F)(F)F)n(C)c3=O)c2o1 [Compound 274] at or above 90%? Met

Is PREEMERGENCE HERBICIDAL ACTIVITY (% CONTROL) SOY for Cn1c(C(F)(F)F)cc(=O)n(-c2c(F)cc(Cl)c3cc(CCCl)oc23)c1=O [Compound 236] at or above 90%? Met

Is PREEMERGENCE HERBICIDAL ACTIVITY (% CONTROL) SOY for CC(OC(=O)NCc1ccccc1)c1cc2c(Cl)cc(F)c(-n3c(=O)cc(C(F)(F)F)n(C)c3=O)c2o1 (centres unmarked) [Compound 250] at or above 90%? Not met

Is PREEMERGENCE HERBICIDAL ACTIVITY (% CONTROL) SOY for C=CCOc1nc2c(-n3c(=O)cc(C(F)(F)F)n(C)c3=O)c(F)cc(Br)c2o1 [Compound 110] at or above 90%? Met

====

For each entry below, report its PREEMERGENCE HERBICIDAL ACTIVITY (% CONTROL) IPOSS value.
Test system: morningglory (Ipomea lacunosa or Ipomea hederacea)
Experiment: Preemergence herbicidal activity, morningglory
Assay type: in vivo
Details: Rate of Application 0.3 Kg/Ha, examined after 12-17 days
Numbers only, in %.

Illustrative cases are given below, each with its answer.
In [3]: df
Out[3]:
                                item_smiles  result_units  experimental_value
0  Cn1c(C(F)(F)F)cc(=O)n(-c2c(F)cc(Cl)c3[nH]cnc23)c1=O             %                 100
1  Cn1c(C(F)(F)F)cc(=O)n(-c2c(F)cc(Cl)c3nc(CCc4ccccc4)[nH]c23)c1=O             %                 100
2  CCOC(=O)c1cc2cccc(-n3c(=O)cc(C(F)(F)F)n(C)c3=O)c2o1             %                  10

Each compound below has a recorded value; state its PREEMERGENCE HERBICIDAL ACTIVITY (% CONTROL) IPOSS.
1. Cc1nc2c(-n3c(=O)cc(C(F)(F)F)n(C)c3=O)c(F)cc(Cl)c2o1
2. Cn1c(C(F)(F)F)cc(=O)n(-c2c(F)cc(Cl)c3oc(N)nc23)c1=O
3. Cn1c(C(F)(F)F)cc(=O)n(-c2ccc(Cl)c3cc(C=NO)oc23)c1=O
4. CNC(=O)OCCc1cc2c(Cl)cc(F)c(-n3c(=O)cc(C(F)(F)F)n(C)c3=O)c2o1
5. Cc1nc2c(-n3c(=O)cc(C(F)(F)F)n(C)c3=O)c(F)cc(Cl)c2[nH]1

1. 100
2. 100
3. 60
4. 100
5. 100
